System: NCI-H23 lung
Assay: NCI tumour cell line growth inhibition, 48 h; in the data active = GI50 below about 0.43 µM; inactive = the rest
Could you please pick one outcome from this set? active, inactive

# count of solved cases: 5
{"Compound": "COc1cc(Cl)c(C)cc1NC(=O)c1cc2ccccc2cc1O", "Category": "inactive"}
{"Compound": "COc1cc(/C=C/C(=O)c2ccc(SC)cc2)cc(OC)c1OC", "Category": "inactive"}
{"Compound": "Nc1c2c(c(O)c3c1=C(CO)C=N3)=NCCS2=O (stereo unspecified)", "Category": "inactive"}
{"Compound": "C/C(=N\\O)c1ccc(Nc2cc(-c3ccccc3)nc3c(O)cccc23)cc1", "Category": "inactive"}
{"Compound": "COc1cc2c(cc1OC)-c1c(c3ccc([N+](=O)[O-])cc3c(=O)n1CCCBr)C2=O", "Category": "inactive"}

Q: Call for entry Nc1c(C(=O)Nc2cccc3ccccc23)sc2nc3c(cc12)CCCCCC3 :
A: inactive

Q: Call for entry CCOc1ccc(-n2cc(-c3ccc(N(C)C)cc3)[n+]3c2CCCCC3)cc1 :
A: active

Q: Call for entry Cc1nc(N(C)C)nc(-c2cccc(-c3ccn(CCN(C)C)n3)c2)c1C :
A: inactive

Q: Call for entry OC(c1cc2c(Cl)cc(Cl)cc2c2cc(C(F)(F)F)ccc12)C1CCCCN1 (stereo unspecified) :
A: inactive

Q: Call for entry Nc1c(S(=O)(=O)O)cc2c(c1Cl)C(=O)c1ccccc1C2=O :
A: inactive

Q: Call for entry O=[N+]([O-])c1ccc(N/N=C\c2ccc(O)cc2O)nc1 :
A: inactive

Q: Call for entry C=CCOc1ccc2c(c1)CC[C@@H]1[C@@H]2CC[C@]2(C)C(=O)/C(=N/O)C[C@@H]12 :
A: inactive

Q: Call for entry COC(=O)/C=C/c1cc(OC)c2c(c1)[C@@H](C(=O)OC)[C@H](c1ccc(OC)c(OC)c1)O2 :
A: inactive

Q: Call for entry COc1ccc(-n2cc(-c3ccc(F)cc3)[nH]c2=O)cc1OC :
A: inactive

Q: Call for entry CC/C(=C(/c1ccc(Cl)cc1)c1ccc(OCCCN(C)C)cc1)c1ccc(OC)cc1 :
A: inactive

Q: Call for entry COc1nc(C(Cl)(Cl)Cl)c(Cl)c(OC)c1Cl :
A: inactive

----------
Test system: DMS 273 small cell lung
Assay: NCI tumour cell line growth inhibition, 48 h
Measure Name: TGI

In the examples that follow, each entry is paired with its recorded TGI.
{"Compound": "CCN(CC)[C@@H]1c2cc3c(cc2C(c2cc(OC)c(O)c(OC)c2)C2C(=O)CO[C@@H]21)OCO3 (stereo not given in full)", "TGI": "> 100 µM"}
{"Compound": "O=C1OC(/C=C/c2ccccc2)C(=O)C1=O (stereo not given)", "TGI": "> 100 µM"}
{"Compound": "COc1ccc2c(c1)[n+](=O)c(C(=O)C/C(=N\\NC(=O)C[N+](C)(C)C)C(=O)Nc1cc(Cl)ccc1Cl)c(C)n2O", "TGI": "> 100 µM"}

Q: Looking for the measured TGI of CC(=O)Oc1cc(OC(C)=O)c(OC(C)=O)c2c1CC1C(=O)C3(CCc4ccccc43)C(=O)C1C2 (stereo not given) , can you help?
A: 34.9 µM

Q: Looking for the measured TGI of O=c1n(CC2CO2)c2ccccc2n1CC1CS1 (stereo not given) , can you help?
A: > 100 µM

Q: Looking for the measured TGI of CC(=O)NC1C(OCc2ccccc2)OC(COC(=O)CCCCCCCCCCNC(=O)CCNc2ccc([N+](=O)[O-])c3[nH]c4ccc(O)cc4c(=O)c23)C(O)C1OC(C)C(=O)N[C@H](C(=O)N[C@H](CCC(=O)O)C(N)=O)C(C)C (stereo not given in full) , can you help?
A: > 100 µM

Q: Looking for the measured TGI of CCC1(O)CC(c2ccccc2)N(C)C(c2ccccc2)C1 (stereo not given) , can you help?
A: > 100 µM

Q: Looking for the measured TGI of CCCCCCCCC[C@@H]1C[C@H](O)[C@H](Cc2ccccc2)N1C(=O)OC(C)(C)C , can you help?
A: 32.8 µM

Q: Looking for the measured TGI of OC1/C(=C/c2ccccc2)CNC/C1=C\c1ccccc1 (stereo not given) , can you help?
A: > 100 µM

Q: Looking for the measured TGI of O=C(c1ccccc1)C(c1ccccc1)C1(O)C(=O)Nc2ccc(Br)cc21 (stereo not given) , can you help?
A: > 100 µM

----------
Entries annotated with measured TGI
System: UACC-257 melanoma
Experiment: NCI tumour cell line growth inhibition, 48 h

In the examples that follow, each entry is paired with its recorded TGI.
{"Compound": "Nc1nc(=O)n(C2CC(O)C(CO)O2)c2nc(-c3ccc(-c4ccccc4)cc3)cnc12 (configuration not stated)", "Measure Name": "TGI", "Result": "> 100 µM"}
{"Compound": "Cc1nc2ccccc2n1Cc1ccc(NC(=S)NC2CCCCC2)cc1", "Measure Name": "TGI", "Result": "> 95.1 µM"}
{"Compound": "CC(=O)Nc1ccc2cc3c(nc2n1)c1cccnc1n3S(=O)(=O)c1ccccc1", "Measure Name": "TGI", "Result": "> 100 µM"}

Then there is this compound:
Q: Looking for the measured TGI of COc1ccc(-c2nc3ccccc3c(=O)[nH]2)cc1OC , can you help?
A: > 100 µM

----------
System: CAKI-1 renal
Experiment: NCI tumour cell line growth inhibition, 48 h
Measure Name: TGI

In the examples that follow, each entry is paired with its recorded TGI.
{"Compound": "O=C1CSC2(CC(/C=C/c3ccccc3[N+](=O)[O-])=NN2c2cccc(S(=O)(=O)O)c2)N1c1nc2ccccc2s1 (configuration not stated)", "TGI": "> 75 µM"}
{"Compound": "NCCCSCC(=O)O", "TGI": "> 100 µM"}
{"Compound": "CCOc1ccc(-n2cc(-c3ccc(N(C)C)cc3)[n+]3c2CCCCC3)cc1", "TGI": "> 100 µM"}
{"Compound": "CCC1(O)CC(c2ccccc2)N(C)C(c2ccccc2)C1 (configuration not stated)", "TGI": "> 100 µM"}

Q: Looking for the measured TGI of c1ccc2c[n+](Cc3ccnc4ccccc34)ccc2c1 , can you help?
A: > 100 µM

Q: Looking for the measured TGI of O=CN/C=C\c1cc(O)ccc1O , can you help?
A: 26.4 µM

Q: Looking for the measured TGI of NC(=O)NC(=O)c1cccc(C(=O)NC(N)=O)n1 , can you help?
A: > 100 µM

----------
System: SK-OV-3 ovarian
Test: NCI tumour cell line growth inhibition, 48 h
Entries annotated with measured GI50

{"Compound": "COc1nc(C(Cl)(Cl)Cl)c(Cl)c(OC)c1Cl", "Measure Name": "GI50", "Result": "> 64.2 µM"}
{"Compound": "N=C(N)c1ccc(-c2ccc(-c3ccccc3)o2)o1", "Measure Name": "GI50", "Result": "4.3 µM"}
{"Compound": "CCc1cc(Cc2cc(CC)cc(C(C)(C)C)c2O)c(O)c(C(C)(C)C)c1", "Measure Name": "GI50", "Result": "3.81 µM"}

Then there is this molecule:
Q: Looking for the measured GI50 of C/C(=N\O)c1ccc(Nc2cc(-c3ccccc3)nc3c(O)cccc23)cc1 , can you help?
A: 27.4 µM

----------
Entries annotated with measured TGI
Test system: COLO 205 colon
Experiment: NCI tumour cell line growth inhibition, 48 h

{"Compound": "OC(c1cc2c(Cl)cc(Cl)cc2c2cc(C(F)(F)F)ccc12)C1CCCCN1 (configuration not stated)", "Assay System": "COLO 205 colon", "Result": "3.55 µM"}

Q: // lookup TGI | system=COLO 205 colon | key= OCC1C2C=CC(O2)[C@H]1CO (some centres not stated)
A: > 100 µM

Q: // lookup TGI | system=COLO 205 colon | key= Cc1nc(N(C)C)nc(-c2cccc(-c3ccn(CCN(C)C)n3)c2)c1C
A: > 20 µM

Q: // lookup TGI | system=COLO 205 colon | key= COc1ccc(-n2cc(-c3ccc(F)cc3)[nH]c2=O)cc1OC
A: > 100 µM

Q: // lookup TGI | system=COLO 205 colon | key= CC1(C)OC(=O)C(c2ccsc2)C(=O)O1
A: > 100 µM

Q: // lookup TGI | system=COLO 205 colon | key= Fc1cccc(C2SCc3nc4ccccc4n32)c1 (configuration not stated)
A: > 100 µM

Q: // lookup TGI | system=COLO 205 colon | key= O=C(c1ccccc1)C(c1ccccc1)C1(O)C(=O)Nc2ccc(Br)cc21 (configuration not stated)
A: > 100 µM

----------
Tested on: RXF 393 renal
Assay: NCI tumour cell line growth inhibition, 48 h
Entries annotated with measured TGI

{"Molecule": "COc1ccc(C2=Nn3c(C)nnc3S/C2=C\\c2ccc(-c3ccc([N+](=O)[O-])cc3)o2)cc1", "Assay System": "RXF 393 renal", "TGI": "22.8 µM"}

Q: Looking for the measured TGI of COC(=O)C1=C(C(=O)OC)C2CCC1CC2=O (stereo not given) , can you help?
A: > 100 µM

Q: Looking for the measured TGI of ClC1(Cl)C2CCOC21n1cnc2ccccc21 (stereo not given) , can you help?
A: > 100 µM

Q: Looking for the measured TGI of CCOC(=O)CCNC(=O)c1cc(C)cc2c1Oc1c(cc(C)cc1C(=O)NCCC(=O)OCC)S2 , can you help?
A: 58 µM

Q: Looking for the measured TGI of COc1ccc2c(C(=O)NCCCCCC(=O)O)cc3cc4c(cc3c2c1)OCO4 , can you help?
A: > 100 µM
